Biological target: T1, human CD71 extracellular domain (human, UniProt P02786 89-760)
T1 construct: also called hCD71; human CD71-ECD
T1 sequence (P02786 89-760): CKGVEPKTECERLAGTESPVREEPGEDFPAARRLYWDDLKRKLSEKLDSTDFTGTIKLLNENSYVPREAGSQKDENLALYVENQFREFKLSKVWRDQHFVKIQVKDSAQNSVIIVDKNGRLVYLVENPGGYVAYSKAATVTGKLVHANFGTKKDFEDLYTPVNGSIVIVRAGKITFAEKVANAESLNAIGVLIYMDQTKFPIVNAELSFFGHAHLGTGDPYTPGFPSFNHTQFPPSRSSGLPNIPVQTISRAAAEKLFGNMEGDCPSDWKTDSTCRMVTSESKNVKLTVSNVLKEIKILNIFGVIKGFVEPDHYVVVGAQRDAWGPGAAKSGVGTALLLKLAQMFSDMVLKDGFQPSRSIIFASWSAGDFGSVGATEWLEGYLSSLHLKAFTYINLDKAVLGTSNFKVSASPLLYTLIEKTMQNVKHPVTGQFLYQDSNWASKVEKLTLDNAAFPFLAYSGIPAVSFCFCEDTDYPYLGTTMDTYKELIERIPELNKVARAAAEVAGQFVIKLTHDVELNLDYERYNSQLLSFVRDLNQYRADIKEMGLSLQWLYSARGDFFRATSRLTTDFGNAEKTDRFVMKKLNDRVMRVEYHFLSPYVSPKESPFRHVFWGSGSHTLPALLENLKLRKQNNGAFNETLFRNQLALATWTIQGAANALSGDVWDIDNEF
Assay: primary ELISA; note: test concentration or dose not given here
property-name: RLU (RLU)

{"binder": "CD71-binding FN3 domain of SEQ ID NO: 162 (designed binder) MSLPAPKNLVVSRVTEDSARLSWTALDAAFDSFEISYWEHTFNGEAIILFVPGSERSYDLTGLKPGTEYYVTIGGVKGGAWSPPLWAEFTT", "value-measured": "4.46e+06"}
{"binder": "CD71-binding FN3 domain of SEQ ID NO: 123 (designed binder) MSLPAPKNLVVSRVTEDSARLSWTAPDAAFDSFAIRYWELRATGEAIPLSVPGSERSYDLTGLKPGTEYHVAISGVKGGKSSYPLRASFTT", "value-measured": "4.51e+06"}

P. CD71-binding FN3 domain of SEQ ID NO: 144 (designed binder) MSLPAPKNLVVSRVTEDSARLSWTAPDAAFDSFEIGYFENLYLGEAIVLTVPGSERSYDLTSLKPGTEYWVQIGGVKGGNWSAPLSATFTT
Q. CD71-binding FN3 domain of SEQ ID NO: 217 (designed binder) MSLPAPKNLVVSRVTEDSARLSWTAPDAAFDSFEIAYFEQTYTGEAIVLTVPGSERSYDLTGLKPGTEYWVAIGGVKGGLWSLPLSAIFTT
Req: Recorded RLU values differ for P and Q ; which one is higher? Mark your answer with the label of the selected entry.
Resp: P
